Sourced from ChEMBL document CHEMBL1126865

assay: Urinary recovery in male CD-1 mice after po administration of 20 mg/kg; assay type: ADME, organism-based; set-up: dose 20 mg/kg, route oral; details: CD-1, mouse, urine
property_name: dose excreted

## Input Note down dose excreted recorded for CO/N=C(\C(=O)NC1CN2CC(S(C)(=O)=O)=C(C(=O)O)N2C1=O)c1csc(N)n1 (stereo unspecified)
## Output < 2%

---

assay: Plasma half-life in rats after intravenous administration; type: ADME, organism-based; conditions: rat
property_name: half-life (min)
Quick reminder: number only, in min, skip the unit.

## Input Note down half-life recorded for CO/N=C(\C(=O)N[C@H]1CN2CC(C#N)=C(C(=O)O)N2C1=O)c1csc(N)n1
## Output 18

## Input Note down half-life recorded for C=CCCO/N=C(/C(=O)N[C@H]1CN2CC(S(C)(=O)=O)=C(C(=O)O)N2C1=O)c1csc(N)n1
## Output 11

## Input Note down half-life recorded for CO/N=C(\C(=O)NC1CN2CC(S(C)(=O)=O)=C(C(=O)O)N2C1=O)c1csc(N)n1 (stereo unspecified)
## Output 25

## Input Note down half-life recorded for CCCS(=O)(=O)C1=C(C(=O)O)N2C(=O)[C@@H](NC(=O)/C(=N/OCCCl)c3csc(N)n3)CN2C1
## Output 15

## Input Note down half-life recorded for CO/N=C(\C(=O)N[C@@H]1C(=O)N2C(C(=O)O)=CCS[C@H]12)c1csc(N)n1 [CEFTIZOXIME]
## Output 15

## Input Note down half-life recorded for CC(C)(O/N=C(\C(=O)N[C@@H]1C(=O)N2C(C(=O)[O-])=C(C[n+]3ccccc3)CS[C@H]12)c1csc(N)n1)C(=O)O [CEFTAZIDIME]
## Output 23
